- EXPERIMENTAL SYSTEM: T1, IFN-αWA (human, UniProt P05015 24-189)
- T1 construct: also called IFN-α16; alpha WA
- ASSAY INFO: ProteOn, one antigen concentration
Hi there, I'd appreciate the recorded pKd for every entry that follows.
Numbers only, as −log10 of the molar value.

Examples with answers:
binder="IFWM3311 (antibody, V domains shown, VH IFWH591, VL IFWL1009; converted mAb; also called IFWB3046) VH: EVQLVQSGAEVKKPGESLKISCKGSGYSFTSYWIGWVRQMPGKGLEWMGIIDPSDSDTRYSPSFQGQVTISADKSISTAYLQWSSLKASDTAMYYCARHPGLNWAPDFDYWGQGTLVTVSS VL: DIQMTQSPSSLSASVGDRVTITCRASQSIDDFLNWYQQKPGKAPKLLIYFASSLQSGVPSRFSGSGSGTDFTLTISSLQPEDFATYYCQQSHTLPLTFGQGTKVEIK" reading=10.14
binder="IFWM3310 (antibody, V domains shown, VH IFWH591, VL IFWL1007; converted mAb; also called IFWB3045) VH: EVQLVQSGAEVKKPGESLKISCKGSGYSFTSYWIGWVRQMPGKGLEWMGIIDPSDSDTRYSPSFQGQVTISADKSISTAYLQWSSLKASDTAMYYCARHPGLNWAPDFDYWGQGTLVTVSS VL: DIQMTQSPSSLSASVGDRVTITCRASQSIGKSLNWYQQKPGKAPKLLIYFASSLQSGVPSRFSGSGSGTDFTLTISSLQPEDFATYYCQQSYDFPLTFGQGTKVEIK" reading=10.04
binder="IFWM3315 (antibody, V domains shown, VH IFWH591, VL IFWL1017; converted mAb; also called IFWB3050) VH: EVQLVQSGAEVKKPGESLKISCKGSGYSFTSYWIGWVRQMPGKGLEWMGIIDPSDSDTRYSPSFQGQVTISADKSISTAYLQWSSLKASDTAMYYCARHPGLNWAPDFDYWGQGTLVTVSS VL: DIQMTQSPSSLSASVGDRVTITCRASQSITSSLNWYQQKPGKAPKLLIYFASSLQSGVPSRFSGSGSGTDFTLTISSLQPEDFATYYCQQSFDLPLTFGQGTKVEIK" reading=9.94

Report pKd for each item below.
1. IFWM3312 (antibody, V domains shown, VH IFWH591, VL IFWL1010; converted mAb; also called IFWB3047) VH: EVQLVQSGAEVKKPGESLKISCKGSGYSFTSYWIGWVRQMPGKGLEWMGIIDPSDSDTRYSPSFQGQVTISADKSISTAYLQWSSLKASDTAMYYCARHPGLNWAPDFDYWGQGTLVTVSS VL: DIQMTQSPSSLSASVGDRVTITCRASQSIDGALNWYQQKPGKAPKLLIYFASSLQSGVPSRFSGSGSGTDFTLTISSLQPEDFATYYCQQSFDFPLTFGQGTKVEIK
2. IFWM3343 (antibody, V domains shown, VH IFWH624, VL IFWL997; converted mAb; also called IFWB3078) VH: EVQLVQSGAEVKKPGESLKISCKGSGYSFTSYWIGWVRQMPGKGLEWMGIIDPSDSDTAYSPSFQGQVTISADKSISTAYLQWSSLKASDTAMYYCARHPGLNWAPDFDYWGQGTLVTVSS VL: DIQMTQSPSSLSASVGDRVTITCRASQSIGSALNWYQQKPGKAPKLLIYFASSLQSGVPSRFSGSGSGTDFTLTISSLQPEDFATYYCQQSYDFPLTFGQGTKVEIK

Response line:
1: 10.42; 2: 10.08
